- Test system: HMLE_sh_eGFP viability, CellTiter-Glo luminescence, 72 h
- MEASUREMENT_NOTES: cytotoxicity in HMLE control line with eGFP shRNA, dose response, counter-screen for HMLE_sh_ECad selective toxicity project, cell-based, HMLE_sh_eGFP, luminescence (AID 463074);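 note: counterscreen control line to flag general toxicity for the HMLE_sh_ECad screen; potency for loss of viability as luminescence drops below DMSO wells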
Listing of recorded AC50 by entry.

# COMPOUND, AC50
measured = [
    ("Cc1ccc(Cl)cc1N1CCN(C(CC(C)C)c2nnnn2CC2CCCO2)CC1 (stereo unspecified)", "0.808 µM"),
    ("CCn1c(C(=O)O)c(CC(=O)Nc2cccc(C(F)(F)F)c2)c2ccccc21", "14.6 µM"),
    ("CN(C)CCCNc1ccc(-c2cc(Nc3cccc(Cl)c3)ncn2)cn1", "4.8 µM"),
    ("FC(F)(F)c1cc(-c2ccc(Cl)cc2)nc(NCc2cccnc2)n1", "14 µM"),
    ("Cc1cc(SCC(=O)c2cccs2)n2nc(C)c(-c3ccc(Cl)cc3)c2n1", "15.5 µM"),
    ("C=CCn1c(SCCC)nc2sc3c(c2c1=O)CCc1ccccc1-3", "2.26 µM"),
]

====

- Tested on: HMLE_sh_eGFP viability, CellTiter-Glo luminescence, 72 h
- MEASUREMENT_NOTES: cytotoxicity in HMLE control line with eGFP shRNA, dose response, counter-screen for HMLE_sh_ECad selective toxicity project, cell-based, HMLE_sh_eGFP, luminescence (AID 463074);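 note: counterscreen control line to flag general toxicity for the HMLE_sh_ECad screen; potency for loss of viability as luminescence drops below DMSO wells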
Listing of recorded AC50 by entry.
MEASUREMENT_KIND: AC50

# GIVEN_SMILES, TEST_SYSTEM, DATA_VALUE
data = [
    ("CCN(CC)S(=O)(=O)c1ccc(NC(=O)Nc2cccc(C(F)(F)F)c2)cc1", "HMLE_sh_eGFP viability, CellTiter-Glo luminescence, 72 h", "3.54 µM"),
    ("CC(C)c1nc2sc3ccccc3c(=O)c2c(=O)n1Cc1ccccc1", "HMLE_sh_eGFP viability, CellTiter-Glo luminescence, 72 h", "6.29 µM"),
    ("CN1C(=O)/C(=C/c2cc(N=Nc3ccccc3)ccc2O)SC1=S", "HMLE_sh_eGFP viability, CellTiter-Glo luminescence, 72 h", "1.29 µM"),
    ("COc1ccc(/C=C/C(=O)c2c(O)n(CCC3=CCCCC3)c(=O)[nH]c2=O)cc1", "HMLE_sh_eGFP viability, CellTiter-Glo luminescence, 72 h", "3.33 µM"),
    ("Fc1ccccc1COc1ccc(-c2nnn(Cc3ccccc3F)n2)cc1", "HMLE_sh_eGFP viability, CellTiter-Glo luminescence, 72 h", "4.81 µM"),
]

====

- System: HMLE_sh_eGFP viability, CellTiter-Glo luminescence, 72 h
- MEASUREMENT_NOTES: cytotoxicity in HMLE control line with eGFP shRNA, dose response, counter-screen for HMLE_sh_ECad selective toxicity project, cell-based, HMLE_sh_eGFP, luminescence (AID 463074);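 note: counterscreen control line to flag general toxicity for the HMLE_sh_ECad screen; potency for loss of viability as luminescence drops below DMSO wells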
Calls of active or inactive are those of the source.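 The calls were made as follows: active = AC50 no more than tenfold above the top dose tested, or full inhibition at every dose with a flat fit (cut at about 19 µM in these data); inconclusive = flat curve fit with inhibition between 30% and 70%, or poor fit; inactive = AC50 more than tenfold above the top dose tested.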
Labels: label 1 (active), label 0 (inactive)

# COMPOUND, TEST_SYSTEM, CLASSIFICATION
measured = [
    ("Cc1ccc(/C=N/NC(=O)CNC(=O)COc2ccccc2)o1", "HMLE_sh_eGFP viability, CellTiter-Glo luminescence, 72 h", "label 0"),
    ("CCCCOC(=O)c1c(C)oc2ccc(NS(=O)(=O)c3ccc4c5c(cccc35)C(=O)N4)cc12", "HMLE_sh_eGFP viability, CellTiter-Glo luminescence, 72 h", "label 1"),
    ("COc1ccc(N/N=C/c2c(O)n(-c3ccc(C)c(C)c3)c(=O)[nH]c2=O)cc1", "HMLE_sh_eGFP viability, CellTiter-Glo luminescence, 72 h", "label 1"),
    ("CN(CC(=O)Nc1ccc(Cl)c(Cl)c1)C(=O)C12CC3CC(CC(C3)C1)C2", "HMLE_sh_eGFP viability, CellTiter-Glo luminescence, 72 h", "label 1"),
    ("O=C(Nc1cccc(C(F)(F)F)c1)Nc1ccc(N2CCCC2)c(S(=O)(=O)Nc2ccccc2Cl)c1", "HMLE_sh_eGFP viability, CellTiter-Glo luminescence, 72 h", "label 1"),
    ("O=C1CC(c2cc(Br)ccc2F)c2cc3c(cc2N1)CCC3 (configuration not stated)", "HMLE_sh_eGFP viability, CellTiter-Glo luminescence, 72 h", "label 1"),
    ("COc1cc2sc(-c3ccccc3OC)c(-c3ccc(O)cc3)c2cc1OC", "HMLE_sh_eGFP viability, CellTiter-Glo luminescence, 72 h", "label 1"),
    ("CC1(NC(=O)CC(c2ccccc2)(c2ccccc2)c2ccccc2)CCN(CCCc2ccccc2)C1=O (configuration not stated)", "HMLE_sh_eGFP viability, CellTiter-Glo luminescence, 72 h", "label 1"),
    ("O=C(C#Cc1ccccc1)Nc1cccc(F)c1", "HMLE_sh_eGFP viability, CellTiter-Glo luminescence, 72 h", "label 1"),
    ("Nc1[nH]n2c(=O)cc(-c3ccccc3)nc2c1N=Nc1ccccc1", "HMLE_sh_eGFP viability, CellTiter-Glo luminescence, 72 h", "label 1"),
    ("O=Cc1ccc(Oc2cc(-c3ccccc3)nc(-c3ccccc3)n2)cc1", "HMLE_sh_eGFP viability, CellTiter-Glo luminescence, 72 h", "label 1"),
    ("CC1(c2ccc(O)cc2)NC(=O)N(c2ccccc2)N1 (configuration not stated)", "HMLE_sh_eGFP viability, CellTiter-Glo luminescence, 72 h", "label 1"),
    ("Cc1ccccc1NCc1ccc([N+](=O)[O-])s1", "HMLE_sh_eGFP viability, CellTiter-Glo luminescence, 72 h", "label 1"),
    ("CC(C)(c1ccccc1)c1ccc(OCCCN2CCNCC2)cc1", "HMLE_sh_eGFP viability, CellTiter-Glo luminescence, 72 h", "label 1"),
    ("CCOC(=O)C(=Cc1ccc(-n2ccnc2)cc1)C(=O)OCC", "HMLE_sh_eGFP viability, CellTiter-Glo luminescence, 72 h", "label 1"),
    ("CCOC(=O)c1cnc2ccc(OCC)cc2c1NCc1ccccc1OC", "HMLE_sh_eGFP viability, CellTiter-Glo luminescence, 72 h", "label 1"),
    ("CCCCCCSc1ccc(-c2nc3ccccn3c2NCCCC)cc1", "HMLE_sh_eGFP viability, CellTiter-Glo luminescence, 72 h", "label 1"),
    ("Cc1cc(C)cc(CC(Cc2nc3ccccc3[nH]2)c2nc3ccccc3[nH]2)c1 (configuration not stated)", "HMLE_sh_eGFP viability, CellTiter-Glo luminescence, 72 h", "label 1"),
    ("Cc1cc(C)c(C(CC(=O)c2cccs2)C(C#N)C#N)c(C)c1 (configuration not stated)", "HMLE_sh_eGFP viability, CellTiter-Glo luminescence, 72 h", "label 1"),
    ("NC(=O)CC(NC(=O)c1ccc(Br)cc1)c1ccc(N2CCCCCCC2)c([N+](=O)[O-])c1 (configuration not stated)", "HMLE_sh_eGFP viability, CellTiter-Glo luminescence, 72 h", "label 1"),
    ("Nc1nc(Cl)nc2c1ncn2[C@H]1C[C@H](O)[C@@H](CO)O1", "HMLE_sh_eGFP viability, CellTiter-Glo luminescence, 72 h", "label 1"),
    ("Cc1ccc(-n2nc(C)c3c(C)c(CCC(=O)Nc4ccc(CN5CCCC5)cc4)c(C)nc32)cc1", "HMLE_sh_eGFP viability, CellTiter-Glo luminescence, 72 h", "label 1"),
]

====

- Tested on: HMLE_sh_eGFP viability, CellTiter-Glo luminescence, 72 h
- MEASUREMENT_NOTES: cytotoxicity in HMLE control line with eGFP shRNA, dose response, counter-screen for HMLE_sh_ECad selective toxicity project, cell-based, HMLE_sh_eGFP, luminescence (AID 463074);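 note: counterscreen control line to flag general toxicity for the HMLE_sh_ECad screen; potency for loss of viability as luminescence drops below DMSO wells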
Listing of recorded AC50 by entry.

# COMPOUND, AC50
measured = [
    ("O=C(CSc1nc(-c2ccccc2)cc(C(F)(F)F)n1)c1cccc([N+](=O)[O-])c1", "20.4 µM"),
    ("O=C1c2cccc3cccc(c23)C(=O)N1CCN1CCN(CC(O)COc2ccc3ccccc3c2)CC1 (stereo not given)", "6.81 µM"),
    ("Cc1cccc(-n2ncc3c(N4CCCc5ccccc54)ncnc32)c1", "7.68 µM"),
    ("CCCCCCCCCc1nc2sc3c(c2c(=O)n1NC(=O)c1ccccc1[N+](=O)[O-])CC(C)(C)OC3", "1.21 µM"),
    ("Cc1cc(S(=O)(=O)c2ccc([N+](=O)[O-])cn2)ccc1Br", "3.99 µM"),
    ("Cc1cccc(C(=O)Nc2ccc(C(=O)Nc3ccc(O)cc3)cc2)c1", "5.08 µM"),
    ("CC1(C)C[C@@H]2C[C@@](C)(CN2C(=O)c2cc(COc3cccc(C(F)(F)F)c3)on2)C1", "4.8 µM"),
    ("Nc1c(C(=O)Nc2ccccc2)c2nc3ccccc3nc2n1CCCN1CCOCC1", "6.77 µM"),
    ("COc1ccc(-c2sc3ccccc3c2-c2ccc(OCCN3CCOCC3)cc2)cc1", "1.51 µM"),
    ("S=C1NC[C@H](Cc2ccccc2)N1CCCCC1CCCCC1", "4.19 µM"),
]

Cited source: PubChem BioAssay AID463074
